biological target: DNA topoisomerase 2-alpha (Homo sapiens, UniProt P11388); experiment: Inhibition human placenta topoisomerase 2 assessed as conversion of catenated kinetoplast DNA to minicircle monomer
Sequence (P11388 whole entry): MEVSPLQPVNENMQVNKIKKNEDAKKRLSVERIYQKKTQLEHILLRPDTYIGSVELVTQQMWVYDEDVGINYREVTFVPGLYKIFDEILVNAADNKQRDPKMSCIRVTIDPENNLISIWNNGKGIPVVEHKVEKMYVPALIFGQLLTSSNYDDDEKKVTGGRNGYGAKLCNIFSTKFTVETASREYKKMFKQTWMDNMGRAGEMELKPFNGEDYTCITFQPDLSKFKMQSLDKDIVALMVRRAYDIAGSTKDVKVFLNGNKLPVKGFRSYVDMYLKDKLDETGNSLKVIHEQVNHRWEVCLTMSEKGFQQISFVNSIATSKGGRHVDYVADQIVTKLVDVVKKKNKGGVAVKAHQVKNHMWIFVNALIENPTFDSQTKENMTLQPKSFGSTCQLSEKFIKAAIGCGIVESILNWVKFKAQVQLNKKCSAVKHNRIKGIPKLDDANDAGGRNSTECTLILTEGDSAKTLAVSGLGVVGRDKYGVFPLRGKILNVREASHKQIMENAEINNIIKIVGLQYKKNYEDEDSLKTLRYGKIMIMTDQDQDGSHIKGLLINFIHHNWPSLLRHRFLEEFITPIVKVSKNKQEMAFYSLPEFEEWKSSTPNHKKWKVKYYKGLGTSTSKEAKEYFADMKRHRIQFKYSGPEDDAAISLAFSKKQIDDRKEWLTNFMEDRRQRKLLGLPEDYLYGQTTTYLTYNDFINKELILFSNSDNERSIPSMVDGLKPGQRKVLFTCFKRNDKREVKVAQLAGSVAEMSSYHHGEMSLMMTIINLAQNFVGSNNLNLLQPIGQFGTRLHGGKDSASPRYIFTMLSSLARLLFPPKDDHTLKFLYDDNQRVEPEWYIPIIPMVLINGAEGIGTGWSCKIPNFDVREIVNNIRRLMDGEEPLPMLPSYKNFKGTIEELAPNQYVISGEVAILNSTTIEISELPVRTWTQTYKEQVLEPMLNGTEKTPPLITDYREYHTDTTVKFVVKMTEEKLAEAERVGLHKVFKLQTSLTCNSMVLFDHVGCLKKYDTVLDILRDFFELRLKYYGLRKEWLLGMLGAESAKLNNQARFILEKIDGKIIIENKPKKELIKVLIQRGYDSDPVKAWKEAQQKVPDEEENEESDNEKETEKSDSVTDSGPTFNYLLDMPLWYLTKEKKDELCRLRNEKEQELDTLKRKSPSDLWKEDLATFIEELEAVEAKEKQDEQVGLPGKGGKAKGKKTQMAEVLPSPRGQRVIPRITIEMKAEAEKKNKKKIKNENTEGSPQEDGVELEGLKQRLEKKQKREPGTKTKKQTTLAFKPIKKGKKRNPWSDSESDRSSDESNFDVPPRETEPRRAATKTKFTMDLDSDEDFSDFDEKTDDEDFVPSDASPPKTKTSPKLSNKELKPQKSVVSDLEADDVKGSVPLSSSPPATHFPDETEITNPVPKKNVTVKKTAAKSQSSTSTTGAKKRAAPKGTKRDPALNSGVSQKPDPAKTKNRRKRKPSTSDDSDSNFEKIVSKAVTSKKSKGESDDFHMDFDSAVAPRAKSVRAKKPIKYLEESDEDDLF
property-measured: pIC50
Answers are plain numbers, as −log10 of the molar value.

{"molecule": "COc1cccc2c1C(=O)c1c(O)c3c(c(O)c1C2=O)C[C@@](O)(C(=O)CO)C[C@@H]3O[C@H]1C[C@H](N)[C@H](O)[C@H](C)O1 [DOXORUBICIN]", "pIC50": 6.00}

Pending molecule:
# pIC50 (molecule: C=C1NC(=O)C(C)C(CCC(C)C(=O)/C=C/C(C)=C/CC(C)CCCCCCC)OC(=O)[C@H](CC(OS(=O)(=O)O)C(N)=O)NC(=O)[C@@H](C)CNC1=O (stereo partly drawn) [TOPOSTATIN] ) is 5.40
